Each entry below carries its reported inhibition.
- System: PvdQ acylase [Pseudomonas aeruginosa LESB58]
- MEASUREMENT_PROTOCOL: P. aeruginosa PvdQ acylase inhibitors, primary screen, biochemical, fluorescence, plate reader and imaging, single point (AID 488965);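 further: 0% = vehicle neutral wells and 100% = reference inhibitor wells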
- STATED_CONDITIONS: purified PvdQ acylase, at 10 µM, active compounds read high
Out of some 340,000 compounds screened, about 210 (0.062%) were called active. What follows is part of a selection rich in actives, with near analogues and random picks from the rest.

| COMPOUND | ENDPOINT_UNIT | inhibition |
| --- | --- | --- |
| O=C(c1ccc(-c2ccccc2)cc1)C1CCCN(C(=O)c2cncs2)C1 (centres undefined) | % | 46.5 |
| O=C(NCc1cccc(Cl)c1)C1CCC(=O)N(C2CC2)C1 (centres undefined) | % | 0.749 |
| O=C1CC(C(=O)O)NC(=S)N1 (centres undefined) | % | -11 |
| O=C(NCc1cccc(CNC(=O)Nc2cccc(O)c2)c1)Nc1cccc(O)c1 | % | 8.11 |
| O=C(CCCN1C(=O)CSc2ncccc21)N1CCN(c2cccc(C(F)(F)F)c2)CC1 | % | -3.29 |
| COc1ccccc1NC(=O)C(C)OC(=O)CC1CCCC1 (centres undefined) | % | -15.2 |
| Cc1ccc(S(=O)(=O)N2CCCCC2)cc1C(=O)N(C)CC(=O)Nc1cccc(F)c1 | % | 2.44 |
| C[C@@]12C(=O)N(c3cccc(Br)c3)C(=O)N1[C@H](c1ccc(Cl)cc1)[C@@H]1C(=O)N(C3CCCCC3)C(=O)[C@@H]12 | % | -10.3 |
| COc1cc(OC)cc(-c2cc3ccc(F)cc3cn2)c1 | % | 8.09 |
| CCn1nnnc1SCC(=O)Nc1ccc(N(C)C)cc1 | % | -8.46 |
| CCOC(=O)C(NC(=O)CC(C)C)(Nc1sc2c(c1C(N)=O)CCCC2)C(F)(F)F (centres undefined) | % | -4.91 |
| Cc1ccccc1-n1nc(SCC(=O)O)sc1=S | % | -9.08 |
| c1ccc2cc(CCCc3cc4ccccc4cn3)ncc2c1 | % | 21.2 |
| O=C(Nc1ccccc1C(=O)N1CCOCC1)c1ccc(CSc2ccccc2)cc1 | % | -11.3 |
| CCn1c2ccccc2c2cc(NC(=O)C/C(C)=N/NC(=O)c3ccccc3N)ccc21 | % | -14.8 |
| O=C(/C=C/c1ccccc1Cl)Nc1ccc(S(=O)(=O)Nc2ncccn2)cc1 | % | -4.75 |
| CO[C@@H]1[C@@H](OC(N)=O)[C@@H](O)C(Oc2ccc3c(O)c(NC(=O)c4ccc(O)c(CC=C(C)C)c4)c(=O)oc3c2C)OC1(C)C (some centres undefined) | % | 3.42 |
| COc1ccccc1CN1CCCC(N2CCN(c3ccc(F)cc3)CC2)C1 (centres undefined) | % | -5.39 |
| ONC(=Nc1ccccc1)c1ccccc1Cl | % | -2.68 |
| Cc1ccc(CNC(=O)CC(NC(=O)c2ccccc2)c2ccccc2)cc1 (centres undefined) | % | -6.05 |
| CC1=C(C(=O)Nc2cc(C)ccn2)C(c2cnn(C)c2)C2=C(CC(c3ccccc3)CC2=O)N1 (centres undefined) | % | -10.4 |
| O=C(NCc1cccnc1)c1cnc2ccccc2n1 | % | -7.28 |
| CCCC1CC(C)(C(=O)Cn2[nH]c(=O)ccc2=O)OC1=O (centres undefined) | % | -24.8 |
| CCOc1cc(/C=C2\SC(N3CCCC(C)C3)=NC2=O)ccc1O (centres undefined) | % | -6.66 |
| CC1(C)Cc2cccc(OCC(=O)N3CCN(c4ccc([N+](=O)[O-])cc4)CC3)c2O1 | % | 3.43 |
| CCNC(=O)N1CCCC(C(=O)c2ccc(-c3ccccc3)cc2)C1 (centres undefined) | % | -11 |
| Cc1nc2ccccc2c(=O)n1-c1ccc(F)c(NC(=O)c2cccs2)c1 | % | 4.62 |
| CC(CNC(=O)Cn1cnc2c(OCc3ccccc3)ncnc21)c1ccccc1 (centres undefined) | % | -13.2 |
| O=C(NCCc1ccccc1)C1CC1 | % | 11.7 |
| O=C(CCCOc1ccccc1)NCc1ccco1 | % | -2.34 |
| COc1cc([C@H](Cc2ccccc2)NC(C)=O)oc(=O)c1 | % | -11.2 |
| COc1ccc(-c2[nH]ncc2CN(C)Cc2cccnc2)c(F)c1 | % | -16.1 |
| C/C(=N\NC(=O)Cc1ccccc1[N+](=O)[O-])c1cccnc1 | % | -8.6 |
| O=S(=O)(O)c1cc2onnc2c2ccccc12 | % | -19.4 |
| COc1ccc(C(=O)NC2CCN(C(=O)Nc3ccc(F)cc3)CC2)cc1 | % | -6.33 |
| CCOc1ccc(/C=C(/NC(=O)c2ccccc2)C(=O)NCCC(=O)O)cc1 | % | 3.82 |
| CN1CCN(S(=O)(=O)c2ccc(Nc3ccc(F)cc3)nc2)CC1 | % | 4.04 |
| Cc1oc(-c2ccccc2Cl)[n+]([O-])c1C | % | -3.53 |
| C/C(Cc1ccccc1)=N\NC(=O)CNC(=O)c1cccc(Br)c1 | % | 2.03 |
| Cc1nc2nc(C)c(CCC(=O)N3CCN(c4ccccc4)CC3)c(C)n2n1 | % | -9.01 |
| O=C(O)CCC(=O)Nc1ccc(OCC2CCCO2)cc1 (centres undefined) | % | -5.22 |
| O=C1C=C(c2cccc(Br)c2)C[C@@H](c2ccc(F)cc2)C1 | % | 63.4 |
| COc1ccc(CCNC(=O)COc2cc(C)cc3oc(=O)c(C)c(C)c23)cc1OC | % | -16.2 |
| COc1cccc(C2=CC(=O)C[C@H](c3ccc(F)cc3)C2)c1OC | % | -13.7 |
